Each recorded value in this set is attributed to the supplement of paper PMC4466140.

target: CaMyo5; assay: SPOT peptide array binding signal intensity (averaged, normalized) (arbitrary units (background-subtracted, floor 0; scale differs between SH3 domains)); higher = stronger binding of the SH3 domain to the peptide
I'd appreciate it if you could supply SPOT peptide array binding signal intensity values for the items below.
One number for each entry.

Example results:
IKKRNKIRLPSGSPE | 1.5
VGFRLALKFPSRITG | 105
RVTRKRPREPKSTND | 2
QNTPPLPPKPKSPHL | 4
TKIRRRPQQPLTDFT | 1.5
QHQQRQPKRPKRYSL | 12
KKEKKPPKIPKKVYT | 1.5
RLSRLLLSLPPESFT | 28

For every item in the list below, what is its measured SPOT peptide array binding signal intensity?
1. LKPPIGRPPKFPKSP
2. SGVRLPAPPPPPRRG
3. VQQDSLPKLPFRSWG

[45.5, 42, 0.5]

For every item in the list below, what is its measured SPOT peptide array binding signal intensity?
1. PPIPNAPLSPAPAVP
2. RKRAPTPPAPSRSEK
3. AAHKTKPSIPPKKVE
4. MAMRPIPPLPTESEY
5. GERSRPLVISILSSA

1. 952
2. 3.5
3. 1
4. 35.2
5. 24

For every item in the list below, what is its measured SPOT peptide array binding signal intensity?
1. TSFKGRPKPPKTLKH
2. PSRRDSLSIPRAVDA
3. LYEAMPPTLPHRDWK
4. NRPAIRIPSLKKPAL
5. LPPPPPPPPPPPLPQ
6. EEEEEHPPLPARRKS

1: 2.5; 2: 1.5; 3: 12; 4: 2.75; 5: 182; 6: 1.75

For every item in the list below, what is its measured SPOT peptide array binding signal intensity?
1. NFFRKKLGIPRKLKR
2. PSTMDFPKLPSFQNS
3. TKRKRPARLIFYDSK

1: 0.75; 2: 95.5; 3: 3.5
